- protocol details: in vitro
- condition: human, hela cells, % viability

{"compound": "Cc1cc(CC(=O)N2CCN(c3ncccn3)CC2)on1 [CBK144507]", "viability at 28.5 h, 10 µM [%]": 90}
{"compound": "CCc1cnc(CN(C)C2CCN(Cc3cccc(C(N)=O)c3)C2)o1 (centres unmarked) [CBK305357]", "viability at 28.5 h, 10 µM [%]": 90.5}
{"compound": "Cc1cc(O)cc(C2CCCN(C(=O)c3ccc(F)c(F)c3)C2)n1 (centres unmarked) [CBK283406]", "viability at 28.5 h, 10 µM [%]": 105}
{"compound": "CC(C)Oc1cccc2cccc(C(O)CN(C)C)c12 (centres unmarked) [CBK009892]", "viability at 28.5 h, 10 µM [%]": 98.5}
{"compound": "C=CCn1c(SCC(=O)Nc2ccccn2)nnc1-c1ccc(Br)cc1 [CBK022413]", "viability at 28.5 h, 10 µM [%]": 96.3}

====

- protocol details: in vitro
- condition: human, hela cells, % viability
Listing: viability at 28.5 h, 10 µM of selected compounds

{"compound": "O=C(COc1ccc(Br)cc1)Nc1ccc(Cl)c(-c2nc3ccccc3[nH]2)c1", "viability at 28.5 h, 10 µM": "92%"}
{"compound": "COc1cccc(CNC(=O)C2CCCN(c3nc4c(-c5ccccc5)csc4c(=O)[nH]3)C2)c1 (stereo not shown)", "viability at 28.5 h, 10 µM": "99.8%"}
{"compound": "O=C(/C=C/c1cn([C@H]2C[C@@H](O)[C@@H](CO)O2)c(=O)[nH]c1=O)ON1C(=O)CCC1=O", "viability at 28.5 h, 10 µM": "99.3%"}
{"compound": "CCc1c(C)nn(-c2ccccc2Br)c1-c1ccccc1", "viability at 28.5 h, 10 µM": "87.9%"}

====

- protocol details: in vitro
- condition: human, hela cells, % viability

{"compound": "CN(C)CCP(=O)(c1ccccc1)c1ccccc1", "unit abbrev": "%", "viability at 28.5 h, 10 µM": 109}
{"compound": "Cn1cc(C2CCCCCN2C(=O)c2cc(C3CC3)on2)cn1 (stereo not shown)", "unit abbrev": "%", "viability at 28.5 h, 10 µM": 104}
{"compound": "C/C(=N\\NC(=O)c1ccc(CN2CCOCC2)cc1)c1ccc2c(c1)OCCO2", "unit abbrev": "%", "viability at 28.5 h, 10 µM": 92}
{"compound": "N#Cc1ccc(SCCOC(=O)c2cccs2)c([N+](=O)[O-])c1", "unit abbrev": "%", "viability at 28.5 h, 10 µM": 99}
{"compound": "COc1ccc(C(=O)NC(N2CCCCC2)C(Cl)(Cl)Cl)cc1 (stereo not shown)", "unit abbrev": "%", "viability at 28.5 h, 10 µM": 89.1}
{"compound": "O=C(NCc1ccccc1)c1ccc(NC(=O)c2cc(-n3cnnc3)ccc2Cl)cc1", "unit abbrev": "%", "viability at 28.5 h, 10 µM": 99.2}
{"compound": "Cc1nnnn1-c1cc(NC(=O)NCCc2ccnn2C)ccc1F", "unit abbrev": "%", "viability at 28.5 h, 10 µM": 87.8}
{"compound": "Cc1c(C(=O)NC2CCN(c3ncccc3C#N)CC2)ccn1C", "unit abbrev": "%", "viability at 28.5 h, 10 µM": 103}
{"compound": "COC(=O)c1cccc2c1[nH]c1ccccc12", "unit abbrev": "%", "viability at 28.5 h, 10 µM": 99.9}
{"compound": "CS(=O)(=O)c1ccc(-c2cnc3[nH]c(=O)n(Cc4cccs4)c3n2)cc1", "unit abbrev": "%", "viability at 28.5 h, 10 µM": 93.1}
{"compound": "CCOC(=O)N1CCC(Nc2nc3ccccc3nc2OCc2cc(C)on2)CC1", "unit abbrev": "%", "viability at 28.5 h, 10 µM": 89.2}
{"compound": "Cc1cc(S(=O)(=O)N2CCCC2)ccc1OCC(=O)NCc1ccncc1", "unit abbrev": "%", "viability at 28.5 h, 10 µM": 91.3}
{"compound": "c1ccc(-c2cccc(-c3cc(N4CCN(CCN5CCCC5)CC4)ncn3)c2)cc1", "unit abbrev": "%", "viability at 28.5 h, 10 µM": 99.7}
{"compound": "Cc1cccc(-n2ncc3c(=O)n(CC(=O)NC4CCCCC4)cnc32)c1C", "unit abbrev": "%", "viability at 28.5 h, 10 µM": 104}
{"compound": "Cc1cccc2c1[nH]c1nc(N/N=C\\c3ccc(-c4cccc([N+](=O)[O-])c4)o3)nnc12", "unit abbrev": "%", "viability at 28.5 h, 10 µM": 96}
{"compound": "CC(NC(=O)CCn1c(C(F)F)cc2cccnc21)c1ccncc1 (stereo not shown)", "unit abbrev": "%", "viability at 28.5 h, 10 µM": 91.6}
{"compound": "O=C(N[C@H]1CCN2C(=O)c3cc(-c4ccc5c(c4)OCO5)ccc3NC(=O)[C@H]12)C1CCCC1", "unit abbrev": "%", "viability at 28.5 h, 10 µM": 103}
{"compound": "O=C(N/N=C\\c1ccc(OCc2ccccc2)cc1)C1COc2cc3ccccc3cc2O1 (stereo not shown)", "unit abbrev": "%", "viability at 28.5 h, 10 µM": 95.6}
{"compound": "Cc1cc(C(=O)O)c(NC(=O)c2cccc(Cl)c2)s1", "unit abbrev": "%", "viability at 28.5 h, 10 µM": 100}

====

- protocol details: in vitro
- condition: human, hela cells, % viability

{"compound": "CCOc1ccc2ccccc2c1CNCCc1ccc(S(N)(=O)=O)cc1 [CBK268732C]", "viability at 28.5 h, 10 µM": "88.7%"}
{"compound": "CCc1nc2c(OCC=C(C)C)cccn2c1N(C)C(=O)c1cccc(OC)c1 [CBK147448]", "viability at 28.5 h, 10 µM": "94.3%"}
{"compound": "C(=C\\c1nccnc1OCCn1cccc1)/c1ccccc1 [CBK106884]", "viability at 28.5 h, 10 µM": "94%"}
{"compound": "COc1ccc(CN[C@@H]2CCC[C@H]2Cc2cc(C)no2)cc1 [CBK285401]", "viability at 28.5 h, 10 µM": "94.4%"}
{"compound": "COc1ccc(-c2cccc(CC3(C(=O)NCc4cccs4)CCOCC3)c2)cc1 [CBK286514]", "viability at 28.5 h, 10 µM": "88.5%"}
{"compound": "C(=C\\c1ccccc1)/CN1CCN(c2ncccn2)CC1 [CBK261909]", "viability at 28.5 h, 10 µM": "92.3%"}
{"compound": "CSCCOc1cncc(N2CCCC2)n1 [CBK115761]", "viability at 28.5 h, 10 µM": "101%"}
{"compound": "Clc1cncc(-c2cc3ccccc3[nH]2)n1 [CBK154865]", "viability at 28.5 h, 10 µM": "101%"}
{"compound": "COCc1ccc(C(=O)N2CCC(c3cc4ncccc4[nH]3)CC2)o1 [CBK283373]", "viability at 28.5 h, 10 µM": "102%"}
{"compound": "Cc1[nH]c2ccccc2c1C(=O)CSc1nc(N)cc(=O)[nH]1 [CBK297511]", "viability at 28.5 h, 10 µM": "103%"}

====

- protocol details: in vitro
- condition: human, hela cells, % viability
Listing: viability at 28.5 h, 10 µM of selected molecules
value type: viability at 28.5 h, 10 µM (%)

{"molecule": "CC(=O)c1ccc(O)c2ncccc12", "value type": "viability at 28.5 h, 10 µM", "measured": 110}
{"molecule": "CC(=O)Nc1ccc(CNC(=O)c2ccc[nH]2)cc1", "value type": "viability at 28.5 h, 10 µM", "measured": 87.1}
{"molecule": "COc1ccc(S(=O)(=O)NCCc2ccc(S(N)(=O)=O)cc2)cc1[N+](=O)[O-]", "value type": "viability at 28.5 h, 10 µM", "measured": 94.1}
{"molecule": "FC(F)(F)c1cnc(Sc2c[nH]nn2)c(Cl)c1", "value type": "viability at 28.5 h, 10 µM", "measured": 93.3}
{"molecule": "COc1ccccc1NC(=O)Cn1cc(C(=O)c2cccs2)c2ccccc21", "value type": "viability at 28.5 h, 10 µM", "measured": 98.6}
{"molecule": "C=C(C)Cn1c(SCC(C)C)nnc1-c1scc(C)c1Cl", "value type": "viability at 28.5 h, 10 µM", "measured": 92.7}
{"molecule": "CCOc1cc(C(=S)N2CCCCC2)ccc1OC(=O)c1ccccc1Cl", "value type": "viability at 28.5 h, 10 µM", "measured": 98.9}
{"molecule": "O=C(NCCC1=CCCCC1)Nc1ccc(SC(F)(F)F)cc1", "value type": "viability at 28.5 h, 10 µM", "measured": 85.7}
{"molecule": "COc1ccc(CN2CC=C(c3ccc(F)cc3)CC2)cc1OCc1ccccc1", "value type": "viability at 28.5 h, 10 µM", "measured": 96.1}
{"molecule": "CN1CCC(N(C)C(=O)NCCN2CCOCC2)C1 (centres unmarked)", "value type": "viability at 28.5 h, 10 µM", "measured": 96.3}
{"molecule": "O=C(O)CCn1c(CO)nc2ccccc21", "value type": "viability at 28.5 h, 10 µM", "measured": 115}
{"molecule": "Cc1cc2c(s1)c1cnn(Cc3cccnc3)c(=O)c1n2C", "value type": "viability at 28.5 h, 10 µM", "measured": 79.1}
{"molecule": "COc1cccc(Oc2nccnc2-c2ccc3c(c2)OCO3)c1", "value type": "viability at 28.5 h, 10 µM", "measured": 94.9}
{"molecule": "Cc1ccc(C(=O)Nc2cc(C)nn2C)c(N2CCOCC2)n1", "value type": "viability at 28.5 h, 10 µM", "measured": 104}
{"molecule": "O=C(N/N=C/c1cc(Br)cc(Br)c1O)C(Oc1ccccc1)Oc1ccccc1", "value type": "viability at 28.5 h, 10 µM", "measured": 95.6}
{"molecule": "CN(C)CCOCc1ncccc1OCCOC1CCCCO1 (centres unmarked)", "value type": "viability at 28.5 h, 10 µM", "measured": 93.1}
{"molecule": "Cc1cc(C)n(CCNCc2cc(-c3ccc(F)cc3)c[nH]c2=O)n1", "value type": "viability at 28.5 h, 10 µM", "measured": 89.2}
{"molecule": "COc1cccc(C(=O)COC(=O)c2ccc3c(c2)C(=O)N(c2ccc(C(C)=O)cc2)C3=O)c1", "value type": "viability at 28.5 h, 10 µM", "measured": 84}
{"molecule": "CSCc1nc2ccccc2n1CC(=O)N(CCC#N)Cc1ccco1", "value type": "viability at 28.5 h, 10 µM", "measured": 97.7}
{"molecule": "CC(CC(=O)O)CC(=O)N1CCC2(CC1)NC(=O)Cc1ccccc12 (centres unmarked)", "value type": "viability at 28.5 h, 10 µM", "measured": 95.3}
